assay: yeast display, Sf9 membrane polyspecificity reagent, FACS + sequencing; frameworks hold sequencing errors
property.label: polyreactivity (PSR sort gate)

QVQLVESGGGLVQAGGSLRLSCAASGRIIKFYAMGWYRQAPGKERELVARISRSGGRTYYADSVKGRFTISRDNAKNTVYLQMNSLKPEDTAVYYCAADTQSVATYDYWGQGTQVTVSS ... low polyreactivity
QVQLVESGGGLDPAGGSLRLSCAASGSTFQYNAKGWYRQAPGKERELVAAISGSGGSTYYADSVKGRFTISRDNAKNTVYLQMNSLKPEDTAVYYCNADVSALWWPEEWYNASEFDYWGQGTQVTVSS ... low polyreactivity
QVQLVESGGGLVQAGGSLRLSCAASGRTFQHYVMGWYRQAPGKERELVDSITNDDSTNYADSVKGRFTISRDNAKITVYLQMNRLKPEDTAVYYCNFDDWGTPVEPGDYDYWGQGTQVTVSS ... low polyreactivity

###

assay: yeast display, Sf9 membrane polyspecificity reagent, FACS + sequencing; frameworks hold sequencing errors
property.label: polyreactivity (PSR sort gate)

QVQLVESGGGLVQAGGSLRLSCAASGSTFNNNAMGWYRQAPGKERELVAAISYTGGSTYYADSVKGRFTISRDIAKYTVYLQMNSLKPEDSAVYYCARRQARKFYYWGQGTQVTVSS ... high polyreactivity
QVQLVESGGGLVQAGGSLRLSCAPSGRIFGAYGMGWYRQAPGKERELVAAISNGGRTSYADSVKGRFTISRDNAKNTVYLQLNSVKPEDTAVYYCAAVYWPWFGAYDYWGHGTQVTVSS ... high polyreactivity
QVQLVESGGGLVQAGGSLRLSCAASGIIFRVYAMGWYRQAPGKERELVAAITKGGGRTYYADSVKGRFTISRDNAKNTVYLQMNSLKPEDTAVYYCAARSSSSFEYWGQGTQVTVSS ... high polyreactivity

###

assay: yeast display, Sf9 membrane polyspecificity reagent, FACS + sequencing; frameworks hold sequencing errors
property.label: polyreactivity (PSR sort gate)

QVQLVESGGGLVQAGGSLRLSCAASGIIFEGNVMGWYRHAPAKERELVAAITSDTSTNYADSVKGRFTISRDNAKNTVYLQMNSLKPVDTAVYYFNAVICTDYYYSGTAEFYYWGQGTQVTVSS ... low polyreactivity
QDQHVESGGGLVQAGGSLRLSCDASGFIFTYYAMGWYRQAPGKERELVAAISRSGGNTYYADSVKGRFTISRDNAKNTVYLQMNSLIPEDTAVYYCAAETRRGGYWGYEYYYWGQGTQVTVSS ... high polyreactivity
QVQLEESGRGLVQAGGSLRISCAASGRTYTYYALGWYRQAPGKERELVAAISQSGGSTYYADSVKGRFTISRDNAKNTVYLQMNSLKPEDTAVYYCASVWRTRWAPGYYWGQGTQVTVSS ... high polyreactivity
QVQLVESGGGLVQAGGSLRLSCAASGTYFGYAMGWYRQAPGKETELVAAITSGGSTYYADSVKGRFTISRDNAKNTVYLQMNSLKPEDTADYYCARVYSRWSYRYDYWGQGSQVTVSS ... low polyreactivity
QVQLVESGGGLVQAGGSLRLSCAASGSTFRQYAMGWYRQAPGKERELVAAINWSGSSTYYADSVKGRFTISRDNAKNTVYLQMNSLKPDDTAVYYCAAVVQYWWWKGRGYWGQGTQVTVSS ... high polyreactivity

*Q* What value of measured polyreactivity (PSR sort gate) is listed for "QVQLLESGGGLVQAGGSDRLSCAASGSIFSFNAMGWYRQAPGKERELVAAISRGGSTYYADSVKGRFTISRDNAKNTVYLQLNSLKPEDTAVYYCAADIYGHSYSYYLGEYWGQGTQVTVSS" ?
*A* high polyreactivity
